// provenance: patent US10329289B2

target: UniProtKB P08173; assay: human FLIPR-based M4 PAM assay (Ca2+ mobilization, CHO-K1 cells with human M4 receptor and Gαqi5); settings: acetylcholine at 20% of maximum response, read-out: M4 PAM IP
pEC50: −log10 of the molar value.
Rule: yes (1) for pEC50 not less than 7, no (0) for anything less.

Reported pEC50 reaches at least 7 for Cc1cc2c(nc1N1CC[C@@H](Oc3ccccc3)[C@@H](F)C1)CN(C)C2=O ? yes (1)

Reported pEC50 reaches at least 7 for COc1ccc(OC2CCN(c3nc4c(cc3C)C(=O)N(C)C4(CO)CO)CC2)cn1 ? no (0)

Reported pEC50 reaches at least 7 for Cc1cc2c(nc1N1CCC(Oc3cnn(C)c3)CC1)CNC2=O [Example 206A] ? no (0)

Reported pEC50 reaches at least 7 for Cc1cc2c(nc1N1CCC(Oc3cccc(C#N)c3)CC1)C(C)(C)N(C)C2=O ? no (0)

Reported pEC50 reaches at least 7 for Cc1cc2c(nc1N1CCC(Oc3ccc4c(c3)COC4)CC1)CN([C@H](C)CO)C2=O [Example 268C] ? yes (1)

Reported pEC50 reaches at least 7 for Cc1cc2c(nc1N1CCC(Oc3ccc4c(c3)OCC4)CC1)[C@H](CO)N(C)C2=O ? no (0)

Reported pEC50 reaches at least 7 for Cc1cc2c(nc1N1CCC(Oc3ccc4c(c3)C[S+]([O-])C4)CC1)CNC2=O (single isomer, unassigned) [Example 168B] ? no (0)

* * *

molecular target: human M4 muscarinic acetylcholine receptor (Homo sapiens); assay: human FLIPR-based M4 PAM assay (Ca2+ mobilization, CHO-K1 cells with human M4 receptor and Gαqi5); conditions: acetylcholine at 20% of maximum response, read-out: M4 PAM IP
Sequence (P08173 whole entry): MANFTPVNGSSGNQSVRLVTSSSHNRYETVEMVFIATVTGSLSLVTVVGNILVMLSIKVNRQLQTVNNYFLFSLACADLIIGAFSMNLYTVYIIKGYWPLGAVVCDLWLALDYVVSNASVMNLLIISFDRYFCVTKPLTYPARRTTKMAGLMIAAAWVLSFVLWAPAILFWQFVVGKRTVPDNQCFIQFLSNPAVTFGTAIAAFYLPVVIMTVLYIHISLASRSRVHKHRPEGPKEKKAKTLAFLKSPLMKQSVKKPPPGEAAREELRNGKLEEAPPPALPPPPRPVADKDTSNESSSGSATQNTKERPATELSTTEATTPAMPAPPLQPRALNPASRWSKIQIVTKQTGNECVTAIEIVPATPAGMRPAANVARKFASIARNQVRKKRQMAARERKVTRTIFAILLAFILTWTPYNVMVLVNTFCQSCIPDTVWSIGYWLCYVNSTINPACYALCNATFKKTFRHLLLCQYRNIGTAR
readout: log10 of EC50 (log10 of the value in nM)
Units before log transform: nM; reported quantity: EC50; transform: log10.

Quickly give me recorded log10 of EC50 for CC(=O)NCCOc1ccc(OC2CCN(c3nc4c(cc3C)C(=O)NC4)CC2)cn1 [Example 174] 1.65

Quickly give me recorded log10 of EC50 for Cc1cc2c(nc1N1CC[C@@H](Oc3ccc4c(c3)COC4)[C@@H](F)C1)CN(CCO)C2=O [Example 255] 1.46

Quickly give me recorded log10 of EC50 for CO[C@@H]1Cc2ccc(OC3CCN(c4nc5c(c(C)c4C)C(=O)N(CCO)C5)CC3)cc2C1 [Example 267C] 2.04

Quickly give me recorded log10 of EC50 for Cc1cc2c(nc1N1CCC(Oc3ccc4[nH]nnc4c3)CC1)CNC2=O [Example 163A] 3.06

Quickly give me recorded log10 of EC50 for Cc1cc2c(nc1N1CCC(Oc3ccc4nc(C)n(C)c4c3)CC1)CNC2=O [Example 210] 3.41

Quickly give me recorded log10 of EC50 for Cc1cc2c(nc1N1CCC(Oc3cnc4c(c3)CCO4)CC1)CNC2=O [Example 201A] 1.83

Quickly give me recorded log10 of EC50 for Cc1cc2c(nc1N1CCC(OCC3(C#N)CC3)CC1)CNC2=O [Example 36] 2.48

Quickly give me recorded log10 of EC50 for COc1ccc(OC2CCN(c3nc4c(cc3C)C(=O)NC4)CC2)cn1 [Example 1] 1.43

Quickly give me recorded log10 of EC50 for Cc1cc(N2CCC(OCC3(C)CC3)CC2)nc2c1C(=O)NC2 [Example 224] 3.55

Quickly give me recorded log10 of EC50 for Cc1cc2c(nc1N1CCC(Oc3ccc4c(c3)CC[C@@H]4CCO)CC1)CNC2=O [Example 157A] 1.97

Quickly give me recorded log10 of EC50 for Cc1cc2c(nc1N1CCC(Oc3ccccc3)CC1)CN(C(C)C)C2=O [Example 247] 2.14

Quickly give me recorded log10 of EC50 for Cc1cc2c(nc1N1CCC(OC[C@]3(C)C[C@H]3F)CC1)CNC2=O (single isomer, unassigned) [Example 160C] 1.76

Quickly give me recorded log10 of EC50 for Cc1cc2c(nc1N1CCC(OCC3CCC3)CC1)CNC2=O [Example 172] 2.10

Quickly give me recorded log10 of EC50 for COCCN1Cc2nc(N3CCC(Oc4ccc5c(c4)COC5)CC3)c(C)cc2C1=O [Example 263A] 1.60

Quickly give me recorded log10 of EC50 for COCCCN1Cc2nc(N3CCC(Oc4ccc(OC)nc4)CC3)c(C)cc2C1=O [Example 251] 2.30

Quickly give me recorded log10 of EC50 for Cc1c(N2CCC(Oc3ccc4c(c3)CCOC4)CC2)nc2c(c1C)C(=O)N(C)[C@@H]2CO [Example 369] 1.76

Quickly give me recorded log10 of EC50 for COC1(COC2CCN(c3nc4c(cc3C)C(=O)NC4)CC2)CC1 [Example 193] 3.09
